Biological target: full-length human CD137-Fc fusion protein (human)
Sequence (chain, as listed by the source limits assumed): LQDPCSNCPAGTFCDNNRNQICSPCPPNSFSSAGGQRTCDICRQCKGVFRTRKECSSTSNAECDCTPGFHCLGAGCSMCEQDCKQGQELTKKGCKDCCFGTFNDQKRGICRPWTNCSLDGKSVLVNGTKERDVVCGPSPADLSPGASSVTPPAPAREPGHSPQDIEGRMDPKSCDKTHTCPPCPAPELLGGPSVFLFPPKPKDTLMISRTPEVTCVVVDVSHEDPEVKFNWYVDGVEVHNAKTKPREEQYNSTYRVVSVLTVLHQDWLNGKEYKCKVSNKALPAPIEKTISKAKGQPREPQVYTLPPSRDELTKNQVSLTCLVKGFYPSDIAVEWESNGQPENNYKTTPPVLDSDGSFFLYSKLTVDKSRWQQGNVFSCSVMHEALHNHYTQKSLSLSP
Assay: ELISA, coated CD137-Fc protein 2 µg/mL, antibody 10 or 5 µg/mL; absorbance 620 nm divided by that of the uncoated well
Method: Fragmented human CD137-Fc fusion proteins were diluted to 2 μg/mL in an aqueous sodium carbonate solution adjusted to pH9.6. Fifty μL of a diluted fragmented human CD137-Fc fusion protein was added individually to each well of a Nunc MaxiSorp flat-bottom 96 well plate (Nunc). […] After the chromogenic reaction was stopped using the AP stop solution from KPL, the absorbance was measured at 620 nm on an absorptiometer.
MEASUREMENT_TYPE: Ratio with respect to Non-Coating
I'd appreciate a reply containing only the number, no unit.

Past entries and their recorded results:
INSERT INTO assay_data (binder, measurement_type, experimental_value) VALUES
  ('R14 (antibody, V domains shown, Synthetic library clone; Fab on phage in the phage ELISA) VH: QVQLLESGGGLVQPGGSLRLSCAASGFTFSSYAMSWVRQAPGKGLEWVSAISGSGGSTYYADSVKGRFTISRDNSKNTLYLQMNSLRAEDTAVYYCARDKWYYYPALDYWGQGTLVTVSS VL: DIQMTQSPSSLSASVGDRVTITCRASQSISSYLNWYQQKPGKAPKLLIYAASSLQSGVPSRFSGSGSGTDFTLTISSLQPEDFATYYCLQVYRSPLTFGGGTKVEIK', 'Ratio with respect to Non-Coating', 0.9),
  ('R7 (antibody, V domains shown, Synthetic library clone; Fab on phage in the phage ELISA) VH: QVQLLESGGGLVQPGGSLRLSCAASGFTFSSYAMSWVRQAPGKGLEWVSAISGSGGSTYYADSVKGRFTISRDNSKNTLYLQMNSLRAEDTAVYYCARDRAMYHPSFNYWGQGTLVTVSS VL: DIQMTQSPSSLSASVGDRVTITCRASQSISSYLNWYQQKPGKAPKLLIYAASSLQSGVPSRFSGSGSGTDFTLTISSLQPEDFATYYCQQFNSYPLTFGGGTKVEIK', 'Ratio with respect to Non-Coating', 4.3),
  ('R11 (antibody, V domains shown, Synthetic library clone; Fab on phage in the phage ELISA) VH: QVQLLESGGGLVQPGGSLRLSCAASGFTFSSYAMSWVRQAPGKGLEWVSAISGSGGSTYYADSVKGRFTISRDNSKNTLYLQMNSLRAEDTAVYYCARDKWYYYPALDYWGQGTLVTVSS VL: DIQMTQSPSSLSASVGDRVTITCRASQSISSYLNWYQQKPGKAPKLLIYAASSLQSGVPSRFSGSGSGTDFTLTISSLQPEDFATYYCQQFSRFPLTFGGGTKVEIK', 'Ratio with respect to Non-Coating', 1),
  ('R13 (antibody, V domains shown, Synthetic library clone; Fab on phage in the phage ELISA) VH: QVQLVESGGGLVQPGGSLRLSCAASGFTFSYYDIQWVRQAPGKGLEWVSSISPSGQSTYYRREVKGRFTISRDNSKNTLYLQMNSLRAEDTAVYYCARRTGREYGGGWYFDYWGQGTLVTVSS VL: DIQMTQSPSSLSASVGDRVTITCRASQSISSYLNWYQQKPGKAPKLLIYAASSLQSGVPSRFSGSGSGTDFTLTISSLQPEDFATYYCQQFSRFPLTFGGGTKVEIK', 'Ratio with respect to Non-Coating', 0.4);

Now let's try a different one.
Query: What does the record list as Ratio with respect to Non-Coating for R1 (antibody, V domains shown, Naive library clone; Fab on phage in the phage ELISA) VH: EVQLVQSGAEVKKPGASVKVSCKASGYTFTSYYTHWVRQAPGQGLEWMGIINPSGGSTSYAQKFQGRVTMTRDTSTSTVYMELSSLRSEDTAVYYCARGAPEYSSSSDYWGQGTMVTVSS VL: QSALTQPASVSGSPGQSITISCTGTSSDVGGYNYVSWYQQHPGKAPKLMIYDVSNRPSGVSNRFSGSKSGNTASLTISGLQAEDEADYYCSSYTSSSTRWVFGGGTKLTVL ?
Reply: 27.6
